Overview of reported pest or weed control at 35 g/ha across a group of compounds:
- System: SETVI: green foxtail (Setaria viridis)
- test_protocol: Post-emergent Test III, herbicidal activity in wheat and barley
- Assay type: in vivo
- reported_conditions: Setaria viridis, post-emergence, 504 h; Table 9; 35 g ai/ha; post-emergent; 21 d; read-out: Visual Growth Reduction (%) 21 Days After Application SETVI

compound: C=Cc1c(C(=O)O)nc(-c2ccc(Br)cc2)c(F)c1N [Compound 117]
measured_target: SETVI: green foxtail (Setaria viridis)
pest or weed control at 35 g/ha: 0 to 29%

compound: Cc1c(-c2ccc(C(F)(F)F)c(F)c2)nc(C(=O)O)c(Cl)c1N [Compound 161]
measured_target: SETVI: green foxtail (Setaria viridis)
pest or weed control at 35 g/ha: 30 to 44%

compound: COc1c(N)nc(-c2ccc(Br)cc2F)nc1C(=O)O [Compound 46]
measured_target: SETVI: green foxtail (Setaria viridis)
pest or weed control at 35 g/ha: 0 to 29%

compound: Nc1c(Cl)c(C(=O)O)nc(-c2ccc(Br)cc2)c1Cl [Compound 125]
measured_target: SETVI: green foxtail (Setaria viridis)
pest or weed control at 35 g/ha: 85 to 94%

compound: C#Cc1ccc(-c2nc(C(=O)O)c(C=C)c(N)c2F)cc1 [Compound 36]
measured_target: SETVI: green foxtail (Setaria viridis)
pest or weed control at 35 g/ha: 0 to 29%

compound: COC(=O)c1nc(-c2ccc(Br)cc2)c(Cl)c(N)c1Cl [Compound 47]
measured_target: SETVI: green foxtail (Setaria viridis)
pest or weed control at 35 g/ha: 0 to 29%

compound: COC(=O)c1nc(-c2cc(F)c(Br)cc2F)c(F)c(N)c1Cl [Compound 51]
measured_target: SETVI: green foxtail (Setaria viridis)
pest or weed control at 35 g/ha: 75 to 84%
